Entries and their IC50 values follow.
- Test system: MDA-MB-157
- test: Induction of mitotic arrest in TP53 mutant human MDA-MB-157 cells assessed as multipolar spindle arrays by measuring pericentriolar material incubated for 24 hrs by mitotic index assay
- Format: functional, cell-based
- condition-details: MDA-MB-157, 24 h
Give the value, in units of µM, as a plain number.

Sample answers from the record:
CC(C)(C)NS(=O)(=O)c1cccc(NC(=O)c2ncc(NS(C)(=O)=O)nc2N2CCC3(CC2)CC3)n1	0.032
O=C(Nc1cccc(S(=O)(=O)N2CCCCC2)c1)c1cn[nH]c1-c1ccc(Cl)cc1	8.8

Note: attention shifts to another entry.
Query: Fill in: IC50 of `O=C(Nc1cccc(S(=O)(=O)C2CCCC2)c1)c1cccnc1N1CCCCC1` is ___
Reply: 4.8

----------
// IC50 lookup, one value per entry
- target-or-system: Kinesin-like protein KIF18A (Homo sapiens)
- Sequence (Q8NI77 whole entry, the tested form may be a part): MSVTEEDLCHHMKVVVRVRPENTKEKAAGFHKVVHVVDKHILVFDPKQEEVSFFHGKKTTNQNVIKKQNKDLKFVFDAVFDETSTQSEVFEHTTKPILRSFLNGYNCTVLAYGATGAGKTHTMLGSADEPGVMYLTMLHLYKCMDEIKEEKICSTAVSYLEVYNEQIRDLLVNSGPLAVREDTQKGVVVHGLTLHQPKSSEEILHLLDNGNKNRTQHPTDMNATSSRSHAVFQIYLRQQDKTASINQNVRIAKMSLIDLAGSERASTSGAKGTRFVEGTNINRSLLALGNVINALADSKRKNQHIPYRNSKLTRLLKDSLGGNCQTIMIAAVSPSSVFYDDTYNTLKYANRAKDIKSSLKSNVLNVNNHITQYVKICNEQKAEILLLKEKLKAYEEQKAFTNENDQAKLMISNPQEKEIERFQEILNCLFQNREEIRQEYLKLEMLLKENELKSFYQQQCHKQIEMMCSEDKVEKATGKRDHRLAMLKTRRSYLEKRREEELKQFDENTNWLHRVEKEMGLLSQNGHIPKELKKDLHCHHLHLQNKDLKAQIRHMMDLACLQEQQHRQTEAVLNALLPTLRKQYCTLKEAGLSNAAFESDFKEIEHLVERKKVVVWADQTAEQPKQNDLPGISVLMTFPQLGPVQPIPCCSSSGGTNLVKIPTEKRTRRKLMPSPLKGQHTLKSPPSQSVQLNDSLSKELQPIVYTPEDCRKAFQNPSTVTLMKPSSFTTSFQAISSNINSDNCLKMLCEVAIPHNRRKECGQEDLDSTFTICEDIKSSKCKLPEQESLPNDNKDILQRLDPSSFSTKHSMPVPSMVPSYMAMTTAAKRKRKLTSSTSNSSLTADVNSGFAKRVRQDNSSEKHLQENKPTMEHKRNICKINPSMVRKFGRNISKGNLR
- test: Inhibition of recombinant His-tagged human KIF18A (1 to 467 residues) expressed in Trichoplusia ni insect cells assessed as inhibition of microtubule-stimulated ATPase activity preincubated for 30 mins followed by ATP addition and further incubated for 15 mins by ADP-Glo reagent based assay
- Design: species or system Insect cell
Quick note: give the figure in µM, leave out the unit.

O=C(Nc1cccc(S(=O)(=O)C2COC2)c1)c1cccnc1N1CCC2(CC1)CC2	8.88

Query: For `CC(C)(O)CNc1ccc(C(=O)Nc2cccc(S(=O)(=O)C3CCCC3)n2)c(N2CCC3(CC2)CC3)c1` , what is its reported IC50?
Reply: 0.165

Query: One more compound: `COc1ccc(C(=O)Nc2cccc(S(=O)(=O)C3CCCC3)n2)c(N2CCC3(CC2)CC3)c1`
Reply: 0.36

Query: One more compound: `O=C(Nc1cccc(S(=O)(=O)C2CCCC2)c1)c1cccnc1N1CCC(F)(F)CC1`
Reply: 5.31

Query: Can you check `O=[N+]([O-])c1cc(Cl)ccc1S(=O)(=O)c1ccccc1` next?
Reply: 1.7

Query: Next record, please: `CC(C)(C)NS(=O)(=O)c1cccc(NC(=O)c2ncc(NS(C)(=O)=O)nc2N2CCC3(CC2)CC3)n1`
Reply: 0.096

Query: Quick one: `CN(CCO)c1ccc(C(=O)Nc2cccc(S(=O)(=O)C3CCCC3)n2)c(N2CCC3(CC2)CC3)c1`
Reply: 0.253

Query: Quick one: `CC(C)(C)NS(=O)(=O)c1cccc(NC(=O)c2ncc(NC(C)(C)CO)nc2N2CCC3(CC2)CC3)c1`
Reply: 0.135

Query: Also need `CC(C)S(=O)(=O)c1cccc(NC(=O)c2cccnc2N2CCC3(CC2)CC3)c1` , thanks.
Reply: 3.15

Query: Also `O=C(Nc1cccc(S(=O)(=O)N2CCCC2)c1)c1cccnc1N1CCC2(CC1)CC2` , if possible.
Reply: 1.83

----------
- test: AUC (0 to 24 hrs) in CD-1 mouse xenografted with human OVCAR-3 cells at 100 mg/kg, po by LC-MS/MS analysis
- Type: ADME, organism-based
- Design: dose 100 mg/kg, route po
- condition-details: in vivo
quantity-kind: AUC(0-t) (µM·h)
Give your result in µM·h as a bare value.

Query: State the recorded AUC(0-t) for this entry: `CC(C)(C)NS(=O)(=O)c1cccc(NC(=O)c2ncc(NS(C)(=O)=O)nc2N2CCC3(CC2)CC3)n1`
Reply: 25.7
